Where these numbers come from: ChEMBL document CHEMBL4007456

Can you tell me MIC for the items I'm about to list?
Test system: Acinetobacter baumannii
assay-text: Antibacterial activity against gram-negative Acinetobacter baumannii AB250 by CLSI method
Assay type: functional

>  <compound>
COc1c(C2CCCN2)cc(O)c2c1C[C@H]1C[C@H]3[C@H](N(C)C)C(O)=C(C(N)=O)C(=O)[C@@]3(O)C(O)=C1C2=O (stereo partly drawn)

>  <MIC>
> 32 µg/mL

$$$$
>  <compound>
CN(C)[C@@H]1C(O)=C(C(N)=O)C(=O)[C@@]2(O)C(O)=C3C(=O)c4c(O)cc([C@@H]5CCCN5)cc4C[C@H]3C[C@@H]12

>  <MIC>
> 32 µg/mL

$$$$

Problem: So what does the record say about MIC for CC(C)CN1CCC[C@H]1c1cc(O)c2c(c1C(F)(F)F)C[C@H]1C[C@H]3[C@H](N(C)C)C(O)=C(C(N)=O)C(=O)[C@@]3(O)C(O)=C1C2=O ?
Solution: > 32 µg/mL

====

For each entry below, report its log10(MIC) value.
Tested on: Staphylococcus aureus
assay-text: Antibacterial activity against gram-positive Staphylococcus aureus SA161 harboring tet(M) by CLSI method
Type: functional
The figures below represent log10 of MIC, where MIC is stated in µg/mL.

State recorded log10(MIC) for all listed compounds.
1. CN(C)[C@@H]1C(O)=C(C(N)=O)C(=O)[C@@]2(O)C(O)=C3C(=O)c4c(O)cc(-c5ccncc5)c(Cl)c4C[C@H]3C[C@@H]12
2. CC1CCC(c2cc(O)c3c(c2C(F)(F)F)C[C@H]2C[C@H]4[C@H](N(C)C)C(O)=C(C(N)=O)C(=O)[C@@]4(O)C(O)=C2C3=O)N1C (stereo not given in full)
3. CN(C)[C@@H]1C(O)=C(C(N)=O)C(=O)[C@@]2(O)C(O)=C3C(=O)c4c(O)cc(-c5cccnc5)c(Cl)c4C[C@H]3C[C@@H]12
4. CN(C)c1cc(NC(=O)CNC(C)(C)C)c(O)c2c1C[C@H]1C[C@H]3[C@H](N(C)C)C(O)=C(C(N)=O)C(=O)[C@@]3(O)C(O)=C1C2=O [TIGECYCLINE]

Solution:
1: -0.30; 2: 0.00; 3: 0.00; 4: -0.90

Each of the following entries comes with a recorded value; kindly state log10(MIC) for each.
1. CN(C)c1c(C2CCCN2)cc(O)c2c1C[C@H]1C[C@H]3[C@H](N(C)C)C(O)=C(C(N)=O)C(=O)[C@@]3(O)C(O)=C1C2=O (stereo not given in full)
2. CC(C)N1CCC[C@H]1c1cc(O)c2c(c1C(F)(F)F)C[C@H]1C[C@H]3[C@H](N(C)C)C(O)=C(C(N)=O)C(=O)[C@@]3(O)C(O)=C1C2=O

Solution:
1: 1.51; 2: 0.30

====

Test system: Proteus mirabilis
assay-text: Antibacterial activity against gram-negative Proteus mirabilis PM385 by CLSI method
Assay type: functional
recorded-metric: MIC (µg/mL)
Numbers only, in µg/mL.

Observe how each entry below is paired with its result.
>  <compound>
CC1CCNC1c1cc(O)c2c(c1C(F)(F)F)C[C@H]1C[C@H]3[C@H](N(C)C)C(O)=C(C(N)=O)C(=O)[C@@]3(O)C(O)=C1C2=O (stereo not given in full)

>  <assayed-system>
Proteus mirabilis

>  <MIC [µg/mL]>
2

$$$$
>  <compound>
CN(C)[C@@H]1C(O)=C(C(N)=O)C(=O)[C@@]2(O)C(O)=C3C(=O)c4c(O)cc([C@H]5CCCN5)c(C(F)(F)F)c4C[C@H]3C[C@@H]12

>  <assayed-system>
Proteus mirabilis

>  <MIC [µg/mL]>
0.5

$$$$

Would you kindly look at the next entry?
Problem: Any idea what its MIC is? The compound is CCN1CCC[C@H]1c1cc(O)c2c(c1C(F)(F)F)C[C@H]1C[C@H]3[C@H](N(C)C)C(O)=C(C(N)=O)C(=O)[C@@]3(O)C(O)=C1C2=O
Solution: 4
